Below is a list of entries, each paired with its recorded clearance value.
# test summary: Single-dose pharmacokinetics in monkeys
# Assay type: in vivo
# condition description: male, cynomolgus monkey, plasma, IV, dose per compound (mg/kg)
Answers without a unit are incomplete; give the number and then its unit.

molecule	clearance
CO[C@@H]1CC[C@H](N2CC[C@H](Nc3ncnc4ccc(C(F)(F)F)cc34)C2=O)[C@H](CNC(C)=O)C1 [Example 15]	28 mL/min/kg
CCC(=O)N[C@@H]1C[C@H](N)CC[C@@H]1N1CC[C@H](Nc2ncnc3ccc(C(F)(F)F)cc23)C1=O [Example 10]	21 mL/min/kg

# evaluate next
Give the measured clearance of CN[C@@H]1CC[C@H](N2CC[C@H](Nc3ncnc4ccc(C(F)(F)F)cc34)C2=O)[C@H](NC(C)=O)C1 [Example 3] .
15 mL/min/kg

* * *

# tgt: human CCR2 (Homo sapiens)
# Sequence (P41597 1-360 isoform P41597-2): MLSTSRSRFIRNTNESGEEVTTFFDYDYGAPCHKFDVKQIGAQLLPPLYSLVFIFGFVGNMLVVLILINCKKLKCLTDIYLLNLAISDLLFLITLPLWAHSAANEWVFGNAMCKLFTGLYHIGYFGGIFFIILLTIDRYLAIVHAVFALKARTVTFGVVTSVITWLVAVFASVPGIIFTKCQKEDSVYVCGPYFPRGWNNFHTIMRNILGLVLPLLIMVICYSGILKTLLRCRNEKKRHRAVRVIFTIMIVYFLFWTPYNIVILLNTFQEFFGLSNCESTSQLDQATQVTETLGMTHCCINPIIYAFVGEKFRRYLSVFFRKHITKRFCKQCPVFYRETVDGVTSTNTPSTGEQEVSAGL
# test summary: THP-1 binding (CCR2, 125I-human MCP-1 tracer)
# Set-up: THP-1 human monocytic leukemic cell line, which expresses endogenous CCR2; endogenous in cells; host or cells: THP-1 human monocytic leukemia cells
# condition description: metabolite examples; THP-1 cells, 125I-MCP-1
# Procedure: The human CCR2 binding assay was also established with the THP-1 human monocytic leukemic cell line, which expresses endogenous CCR2, using 125I-human MCP-1 as the tracer ligand. […] After washing, the plate was dried for 45 minutes at 60° C. followed by addition of 40 μl MicroScint 20 scintillation fluid, sealed and analyzed by the Packard TopCount reader. […] After correcting for non-specific binding, IC50 values were determined.
measured attribute: IC50 (nM)
Field format: number, assumed nM, no unit text.

Recorded results for 2 molecules are shown here.
molecule	unit symbol	IC50
CC(=O)N[C@@H]1C[C@H](NC(C)C)CC[C@@H]1N1CC[C@H](Nc2nc[n+]([O-])c3ccc(C(F)(F)F)cc23)C1=O [Example 6]	nM	139
CC(=O)N[C@@H]1C[C@H](N)CC[C@@H]1N1CC[C@H](Nc2ncnc3ccc(C(F)(F)F)cc23)C1=O [Example 4]	nM	4.22

Please give the measured IC50 for this molecule: CC(=O)N[C@@H]1C[C@H](N(C)C(C)C)CC[C@@H]1N1CC[C@H](Nc2nc[n+]([O-])c3ccc(C(F)(F)F)cc23)C1=O [Example 5]
21.3

Fill in the blank: the reported IC50 of CC(=O)N[C@@H]1C[C@H](NC(C)(C)C)CC[C@@H]1N1CC[C@H](Nc2nc[n+]([O-])c3ccc(C(F)(F)F)cc23)C1=O [Example 14] is ____.
19.9

* * *

# test summary: Parallel Artificial Membrane Permeability Assay (PAMPA)
# Type: in vitro ADME
# condition description: apical and basolateral pH 7.4
# Procedure: All experiments are conducted in triplicate determinations.
Papp at 4 h, 100 µM values for the compounds below.
Number in ×10⁻⁶ cm/s, nothing else.

Please review the following examples before continuing.
structure notation	Papp at 4 h, 100 µM / ×10⁻⁶ cm/s
CC(C)(C)N[C@@H]1CC[C@H](N2CC[C@H](NC(=O)c3ccnc(C(C)(C)C)n3)C2=O)[C@H](NS(C)(=O)=O)C1	35
CO[C@@H]1CC[C@H](N2CC[C@H](Nc3ncnc4ccc(C(F)(F)F)cc34)C2=O)[C@H](CNC(C)=O)C1	18.6

What measured Papp at 4 h, 100 µM goes with `CC(=O)N[C@@H]1C[C@H](N(C)C(C)C)CC[C@@H]1N1CC[C@H](NC(=O)c2cccc(C(C)(C)C)n2)C1=O` ?
26.6
